details: pH 6.8
Could you please report measured aqueous solubility for the items listed next?
One number for each entry, in µg/mL.

- Molecule: "Cc1ccc(C(=O)C(=O)NC2CCCC2)cc1"
  Observable: "aqueous solubility"
  Reported Measurement: 30.2
- Molecule: "N#Cc1cc(-c2n[nH]c(-c3ccncc3)n2)ccn1"
  Observable: "aqueous solubility"
  Reported Measurement: 14.3
- Molecule: "Cc1nc(-c2ccccc2)ccc1C(=O)NC1CCCC1"
  Observable: "aqueous solubility"
  Reported Measurement: 41
- Molecule: "COc1cccc(-n2nc(C(=O)O)cc2-c2ccc(C3CCCCC3)c(Cl)c2)c1"
  Observable: "aqueous solubility"
  Reported Measurement: 33.8
- Molecule: "Cc1cccc(NC(=O)c2noc3c2CCCC3)n1"
  Observable: "aqueous solubility"
  Reported Measurement: 17.1
- Molecule: "Cc1ccc(C)c(NC(=O)CN2CCCN(c3ccc(C(F)(F)F)cn3)CC2)c1"
  Observable: "aqueous solubility"
  Reported Measurement: 11.9

Record aqueous solubility for all entries; do not skip any.
1. Cn1c(NC(=O)C2CC2c2ccc(Cl)cc2)nc2ccccc21 (stereo not drawn)
2. O=C(CN1CCCc2ccc(F)cc21)N1CCNC1=O
3. COc1ccc(OCC(=O)N2CCN(C)CC2)cc1
4. CC1(COc2ccc3c(c2)ncn3-c2ccc3cccc(OS(=O)(=O)C(F)(F)F)c3n2)COC1
5. CN(C)C(=O)C1(Cc2ccccc2-c2ccccc2)CCN(C(=O)C2CCCO2)CC1 (stereo not drawn)
6. Cc1nc([C@H]2CC[C@H](CNC(=O)CN3CCC(c4ccccc4)CC3)CC2)ccc1C(N)=O

a:
0.3
45.1
52.5
0.4
84.1
70.2

---

Could you please report measured intrinsic clearance, rat liver microsomes for the items listed next?

Some solved cases for reference:
- Compound: "CN(C)CCN(Cc1ccccc1)C(=O)CCC(=O)Nc1ncc(-c2ccccc2)n1C"
  Reported Measurement: "279 mL/min/kg"
- Compound: "Cc1noc(CCNc2ncnc3ccccc23)n1"
  Reported Measurement: "94.4 mL/min/kg"
- Compound: "Cc1cc(Cl)n(-c2ccc(C#N)cc2)n1"
  Reported Measurement: "310 mL/min/kg"
- Compound: "CC(C)N(C)S(=O)(=O)N1CCC(CNC(=O)CCCn2cccn2)CC1"
  Reported Measurement: "285 mL/min/kg"
- Compound: "CN(C)C(=O)C1(Cc2ccccc2-c2cccc(F)c2)CCN(C(=O)C2CC=CCC2)CC1 (configuration not stated)"
  Reported Measurement: "2710 mL/min/kg"

Record intrinsic clearance, rat liver microsomes for all entries; do not skip any.
1. Cc1cnc(CNC2(c3nccs3)CCCC2)cn1
2. CCc1cc(=O)[nH]c(SCCCCC2CCOCC2)n1

a:
1: 245 mL/min/kg; 2: 287 mL/min/kg

---

details: pH 6.8
Could you please report measured aqueous solubility for the items listed next?
One number for each entry, in µg/mL.

- Compound: "CCCCN(C)C(=O)Nc1cc(C)ccn1"
  Unit Annotation: "µg/mL"
  Reported Measurement: 24.9
- Compound: "Cc1noc2ncc(C(=O)Nc3nc(C4CC4)cs3)cc12"
  Unit Annotation: "µg/mL"
  Reported Measurement: 11.5
- Compound: "CCCn1cc(C(=O)N2CCC(c3n[nH]cc3C(=O)N3CCOCC3)CC2)cn1"
  Unit Annotation: "µg/mL"
  Reported Measurement: 54.1
- Compound: "CN(CC1CCCC1)C(=O)Nc1ccccc1N1CCOC1=O"
  Unit Annotation: "µg/mL"
  Reported Measurement: 50.6

Record aqueous solubility for all entries; do not skip any.
1. Cc1nc(CN2C(=O)CN(C3CCCC3)C2=O)nc2ccccc12
2. O=C(c1ccc(F)cc1)N1CCN(CC(=O)N2CCCC2=O)CC1
3. O=C(Cn1ccnc1)NCc1ccccc1F
4. N#CCCCN1CCC(c2c[nH]c3ccccc23)CC1

a:
1. 43
2. 94.8
3. 48.8
4. 54.6

Record aqueous solubility for all entries; do not skip any.
1. CCc1cc(N(C)Cc2ccc(N)nc2)nc(C)n1
2. Nc1nc(N)c2c(OCC3CCN(Cc4c(Cl)cccc4Cl)CC3)cccc2n1
3. COc1cccc(CN2CCC(Cc3ccc(-c4cccnc4)cc3)(C(N)=O)CC2)c1
4. Cc1ccc(NC(=O)[C@H]2COc3ccccc3O2)nc1
5. CN(Cc1c(F)cccc1Cl)C(=O)C1(C#N)CCCC1
6. CC(C)(C)c1ccc(C(=O)Nc2cn3cc(-n4ccnc4)ccc3n2)cc1

a:
[36.5, 0.4, 70.6, 31.4, 35.2, 2.75]

Record aqueous solubility for all entries; do not skip any.
1. COc1cccc2cc(C(N)=S)/c(=N/Nc3ccccc3)oc12
2. Fc1ccc(CNc2nnc(-c3ccc4c(c3)OCO4)o2)cc1
3. O=C(Nc1cccc2cnccc12)c1cccc(F)c1
4. COc1ccc(-c2cccc(C3CCCN(C(=O)C4CCCC4)C3)n2)cc1 (configuration not stated)
5. Cc1ccc(-c2csc(CC(N)=O)n2)cc1C
6. Fc1ccccc1CNc1nc(-c2ccccc2)no1

a:
0.45
2.57
47.6
2.45
35.9
3.51

Record aqueous solubility for all entries; do not skip any.
1. O=C(NC1CCN(c2ccc(OC(F)(F)F)cc2)CC1)N1CCC1
2. COc1ccccc1-n1cc2c(c1-c1ccccc1Br)c(=O)n(C)c(=O)n2C
3. CC(C)(C)NC(=O)NCCn1nc2c(cc1=O)CCCC2
4. CC(=O)N1CCCC(C(=O)N2CCc3c(cccc3C(C)C)C2)C1 (configuration not stated)
5. CC1(c2nnc(-c3cc(-c4ccccc4)n[nH]3)o2)CCOCC1

a:
57
0.81
47.5
55
18.4

Record aqueous solubility for all entries; do not skip any.
1. COc1cc2cc(N)c(C3CCN(C(=O)C(C)(C)C)CC3)nc2cc1OC
2. COc1ccc([C@H]2c3[nH]c4ccc(Cl)cc4c3CCN2C(=O)Oc2ccc(Cl)cc2)cc1
3. CCONC(=O)Cc1coc2c(C)c(C)ccc12
4. COc1ccc(C2(NCc3ccc(N4CCCC4=O)cc3)CC2)cc1

a:
[53, 0.1, 34.2, 81.5]

Record aqueous solubility for all entries; do not skip any.
1. Cc1nccc(C2(C)CCN(CC(N)=O)CC2)n1
2. C=CCN(Cc1cccnc1)c1nc(C)nc2sccc12
3. Cc1cc(Nc2ccc3c(c2)oc(=O)n3C)nc(C2CC2)n1
4. Nc1ccc(N2C(=O)CCCC2=O)cc1
5. O=C1CCCN1C(=O)COc1cccc(-c2nnco2)c1
6. c1csc(-c2csc3nc(CN4CCOCC4)nc(N4CCc5[nH]ncc5C4)c23)c1

a:
1: 59.8; 2: 45.5; 3: 5.34; 4: 28; 5: 54.9; 6: 49

Record aqueous solubility for all entries; do not skip any.
1. Cn1cncc1CCNC(=O)[C@H]1CC1(C)C
2. CNC(=O)c1sc2ncccc2c1[C@H]1CC[C@H](CNC(=O)COc2ccccc2)CC1
3. CN(C)c1cc(CNc2ccc(C#N)cn2)ccn1
4. COc1ccc(C(=O)c2ccccc2)c(Oc2nc3c(c(=O)n(C)c(=O)n3C)n2C)c1
5. CC(C)(C)CC(=O)N1CCC(OCCCN)CC1
6. Brc1cnc2ccccc2c1
7. [2H]C([2H])([2H])NC(=O)c1nnc(NC(=O)C2CC2)cc1Nc1cccc(-c2ncn(C)n2)c1OC

a:
28.8
91.2
46
49.3
50.6
0.925
17

---

Could you please report measured MDR1-MDCK efflux ratio for the items listed next?
One number for each entry.

Some solved cases for reference:
- Compound: "O=c1[nH]nc(CCCN2CCOCC2)n1-c1cccc(Cl)c1"
  Reported Measurement: 25.6
- Compound: "CC(C)Cc1nn(C)c(=O)c2c(SCCCO)n(Cc3cccc4ccccc34)cc12"
  Reported Measurement: 1.82
- Compound: "Nc1ncnc2ccc(-c3ccnc(F)c3)nc12"
  Reported Measurement: 0.726
- Compound: "CNCc1cc(N(C)C)nc(C2CCCN2C(=O)COC)n1 (configuration not stated)"
  Reported Measurement: 5.05

Record MDR1-MDCK efflux ratio for all entries; do not skip any.
1. N#Cc1ccc(OCCn2cccn2)cc1
2. Cn1cc(Nc2nccc(N3CC4CCC(C3)N4C(=O)[C@@H]3CC3(F)F)n2)cn1
3. CCc1nc(C)cn2nc(-c3cc(=O)n4cc(C5CCN(C)CC5)cc(C)c4n3)cc12

a:
0.584
39.9
3.62

---

Observable: MDR1-MDCK efflux ratio
Give bare numbers.

Some solved cases for reference:
- Smiles Data: "O=C(c1cccc(Cl)c1)N1CCN(C(=O)c2ccc3ccccc3c2O)CC1"
  Reported Measurement: 0.678
- Smiles Data: "Cc1nn(C)c(C)c1CCC(=O)N1CCN(C)Cc2ccccc21"
  Reported Measurement: 45.8

Record MDR1-MDCK efflux ratio for all entries; do not skip any.
1. CCCN(CC)c1ccc(C(=O)N2CCCN(C(C)=O)CC2)cc1
2. Cc1nccc(N(C)Cc2nc(-c3cccnc3)no2)n1
3. Fc1ccc(Nc2nc(N3CCCCC3)c3nccnc3n2)cc1
4. O=C(NCc1ncc(-c2ccccc2)o1)C1CCCCC1

a:
1. 6.92
2. 0.87
3. 0.305
4. 0.57

Record MDR1-MDCK efflux ratio for all entries; do not skip any.
1. O=C(O)c1ccccc1-n1cnc(CN2CCCC2)c1
2. O=C1c2cccc3cccc(c23)C(=O)N1CCN1CCOCC1
3. Cc1cccc(NC(=O)CN(C)c2ncccc2F)n1
4. Cc1sc(C)c(C(=O)NC2(c3ccc(C(=O)O)cc3)CC2)c1Cc1ccc(C(F)(F)F)cc1

a:
1. 2.49
2. 0.595
3. 0.657
4. 8.19

Record MDR1-MDCK efflux ratio for all entries; do not skip any.
1. CC(C)N(C(=O)Cn1cccc2cc(-c3ccco3)nc1-2)C(C)C
2. CNC(=O)c1cn(C)nc1CC1CCN(Cc2cnc(-c3ccc(OC)cc3)nc2)CC1
3. CC(C)c1nccn1Cc1nc2ccccc2[nH]1

a:
1.81
20.6
24.4

Record MDR1-MDCK efflux ratio for all entries; do not skip any.
1. COCC1(c2nc(-c3ccncc3)nn2Cc2cccc(Cl)c2)CC1
2. COc1ccc(C(=O)N(C)Cc2nccn2C)c(F)c1
3. O=C(O)c1ccc(CN2CC[C@H](c3nc4cc(Cl)ccc4o3)C2)cc1
4. CCOC(=O)N1CCN(C(=O)Nc2cccc3c2CCCC3)CC1
5. CN(C)c1ccnc2sc3c(=O)n(N4CCCCCC4)cnc3c12
6. CCC(CC)NC(=O)c1cc(C)nc2onc(C)c12
7. Cc1nc(C)c2c(C)c(C(=O)N(C)Cc3ccc(C)o3)sc2n1
8. C#CCN1CCC(c2nc(Cc3noc(C)n3)no2)CC1

a:
0.731
2.22
1.11
1.68
3.06
1.34
1.1
0.732

Record MDR1-MDCK efflux ratio for all entries; do not skip any.
1. O=C(Nc1ccc(CN2CCCCC2)cc1)c1ccnc2[nH]cnc12
2. O=C(c1ccc(O)cc1)N1CCN(c2ncnc3c2CCC3)CC1

a:
[9.09, 43.2]

Record MDR1-MDCK efflux ratio for all entries; do not skip any.
1. CC(C)c1nc2c(n1C)CCN(c1ncnc3ccccc13)C2
2. O=C(c1ccccc1F)N1CCC[C@@H]1Cn1nnn(-c2cccs2)c1=O
3. O=C(NCCNC(=O)c1cc(-c2ccccc2)nc2ccccc12)c1ccco1
4. CC(C)c1ccc(CN2CCN(C(=O)C3CCN(C(=O)C4CC4)CC3)CC2)cc1
5. CN(C(=O)c1cncc(F)c1)c1cccc2ncccc12
6. O=c1cc(-c2cc(F)c(Cl)nc2Cl)[nH]c2c(-c3ccccc3)c(C(F)(F)F)nn12
7. OCc1nnc(SCCSC2CCCCC2)n1C1CC1

a:
[4.31, 0.769, 10, 2.65, 2.74, 1.91, 1.96]

Record MDR1-MDCK efflux ratio for all entries; do not skip any.
1. NC(=O)COc1ncnc2ccccc12
2. CCOC(=O)c1ccc(N2CCSCC2)nc1
3. CO[C@H]1/C=C\C=C(/C)C(=O)NC2=CC(=O)C(NCCN(C)C)=C(C[C@@H](C)C[C@@H](OC)[C@@H](O)[C@@H](C)/C=C(\C)[C@H]1OC(N)=O)C2=O
4. COC1(c2nc(Cc3ccccc3)no2)CCN(Cc2ncccc2Cl)CC1
5. O=C(Nc1cccnc1)c1ccccc1Cc1ccccc1
6. CC(C)c1nnc(CN2CCN(c3ccccc3Cl)CC2)o1

a:
1.27
0.309
61.5
0.76
0.612
0.652

Record MDR1-MDCK efflux ratio for all entries; do not skip any.
1. N#C/C(=C\c1cnn(Cc2ccccc2)c1)c1nc2cc(Cl)ccc2c(=O)[nH]1
2. CC(C)c1noc(CNC(=O)N2C[C@H]3C[C@@H](C2)c2cccc(=O)n2C3)n1
3. Cc1nccc(NC(=O)CCc2ccncc2)c1Cl
4. O=C(NCc1ccccn1)c1ccc(F)cc1Cl

a:
1.17
3.14
0.826
0.596
